System: NCI-H322M lung
Test: NCI-60 one-dose screen, 48 h
Conditions: 10 µM unless noted
This is part of a sample that, as a whole, favours compounds with a hit. Of some 83,000 tested, about 20% had one in any assay. The source made the active and inactive calls. Rule for the calls: active = growth percent below 10; inactive = the rest.
Classes used: active, inactive

compound=O=C(O)c1ccc(-n2cc(/C=N/Nc3ccccc3F)c(-c3ccc(O)cc3)n2)cc1 class_assignment=inactive
compound=O=C(/C=C/c1ccccc1)Oc1ccc(/C=C/c2cc(OC(=O)/C=C/c3ccccc3)cc(OC(=O)/C=C/c3ccccc3)c2)cc1 class_assignment=inactive
compound="COc1cc([C@@H]2c3cc4c(cc3C(OC3O[C@@H]5COC(C)O[C@H]5[C@H](O)[C@H]3O)C3COC(=O)[C@@H]32)OCO4)cc(OC)c1O (some centres not stated)" class_assignment=inactive
compound="CN1C(=O)C2(SCC(C(=O)NCC(=O)OC(C)(C)C)N2C(=O)C2CCCCC2)c2ccccc21 (configuration not stated)" class_assignment=inactive
compound=O=C(Cn1c2ccccc2c2ccncc21)N/N=C\c1ccc2ccccc2c1 class_assignment=inactive
compound=NC(=S)NNC1CCCCC1 class_assignment=inactive
compound=O=C(O)c1ccccc1C(=O)c1ccc(I)cc1 class_assignment=inactive
compound=CO[C@H]1/C=C/C=C/C=C/C[C@H](OC(=O)[C@@H](C)NC(=O)C2CCCCC2)[C@H](C)[C@@H](O)/C(C)=C\CCC2=CC(=O)C=C(NC(=O)C1)C2=O class_assignment=active
compound=CC(=O)N[C@@H](CNC(=O)c1cc(NC(=O)c2cc(NC(=O)c3cc(NC(=O)c4nccn4C)cn3C)cn2C)cn1C)CC(=O)Nc1cn(C)c(C(=O)Nc2cc(C(=O)Nc3cc(C(=O)Nc4cc(C(=O)NCCCN(C)CCCNC(=O)c5cccc(C(=O)O)c5)n(C)c4)n(C)c3)n(C)c2)n1 class_assignment=inactive
compound=C=C1C(=O)O[C@H]2[C@H]1CC/C(C(=O)NCCOCCOCC(=O)Nc1ccc(OC)c(C(N)=O)c1O)=C\CC[C@@]1(C)O[C@@H]21 class_assignment=inactive
compound="CC(Cc1cccc(C(F)(F)F)c1)NCCOC(=O)c1ccccc1 (configuration not stated)" class_assignment=inactive
compound="COc1ccc2c(c1)OC(N)=C(C#N)C2c1ccc(F)c(F)c1 (configuration not stated)" class_assignment=inactive
compound=C=C1C(=O)O[C@H]2[C@H]1CC/C(COC(=O)CCCC(=O)OC/C1=C/CC[C@@]3(C)O[C@H]3[C@H]3OC(=O)C(=C)[C@@H]3CC1)=C\CC[C@@]1(C)O[C@@H]21 class_assignment=inactive
compound=C[C@H]1C=C(C[C@@H](O)CCCCCCCCCC[C@@H](O)[C@H]2CCC(=O)O2)C(=O)O1 class_assignment=inactive
compound="Cc1cn([C@]2(CF)O[C@H](CO)C2C)c(=O)[nH]c1=O (some centres not stated)" class_assignment=inactive
compound="O=C1OC(=O)C2C3CC(c4ccccc43)C12 (configuration not stated)" class_assignment=inactive
compound=COc1ccc(Cn2cc3c(c2-c2cc(OC)c(OC)c(OC)c2)CCc2c(CO)noc2-3)cc1 class_assignment=inactive

----------
Test system: K-562 leukemia
Assay: NCI-60 one-dose screen, 48 h
Conditions: 10 µM unless noted
The panel holds about 83,000 compounds, 20% with a hit somewhere; the sample as a whole holds those more often. Activity calls are given as the source filed them. The calls were made as follows: active = growth percent below 10; inactive = the rest.
Classes used: true = active, false = inactive

compound=COc1ccc(-c2nn(-c3cccc(Cl)c3)cc2-c2cc(-c3ccc(Br)cc3)[nH]c(=O)c2C#N)cc1 class_assignment=false
compound=O=[N+]([O-])c1cccc2cc(S(=O)(=O)O)ccc12 class_assignment=false
compound=O=C(Nc1ccc(-n2ccc3c(NC(=O)c4ccccc4)nccc32)cc1)c1cccc(C(F)(F)F)c1 class_assignment=false
compound="C=C(C)[C@@H]1C/C=C(\\COC(=O)[C@H](OC(C)=O)C(NC(=O)c2ccccc2)c2ccccc2)CC[C@H]2O[C@]2(C)CC/C=C(\\C)CC1 (some centres undefined)" class_assignment=false
compound=COc1ccc(-c2c(C#N)cnc(N)c2-c2nc3cc(C)c(C)cc3[nH]2)cc1 class_assignment=false
compound=O=C1COc2ccccc2C(=O)N1CCCCNc1ccccc1 class_assignment=false
compound=COc1cc(-c2nc(N)n(CC(=O)Nc3ccc(/C(C)=N\O)cc3)n2)cc(OC)c1OC class_assignment=false
compound=CCCN1C(=O)CSC1=Nc1ccc2cc3ccc(N=C4SCC(=O)N4CCC)cc3nc2c1 class_assignment=false
compound=C=C1c2c(Cl)ccc(O)c2C(O)=C2C(=O)[C@]3(O)C(O)=C(C(N)=O)C(=O)[C@@H](N(C)C)[C@@H]3[C@@H](O)[C@H]12 class_assignment=true
